- TESTED_TARGET: Estrogen receptor beta (Homo sapiens) (UniProt Q92731)
- Sequence (Q92731 whole entry, looked up): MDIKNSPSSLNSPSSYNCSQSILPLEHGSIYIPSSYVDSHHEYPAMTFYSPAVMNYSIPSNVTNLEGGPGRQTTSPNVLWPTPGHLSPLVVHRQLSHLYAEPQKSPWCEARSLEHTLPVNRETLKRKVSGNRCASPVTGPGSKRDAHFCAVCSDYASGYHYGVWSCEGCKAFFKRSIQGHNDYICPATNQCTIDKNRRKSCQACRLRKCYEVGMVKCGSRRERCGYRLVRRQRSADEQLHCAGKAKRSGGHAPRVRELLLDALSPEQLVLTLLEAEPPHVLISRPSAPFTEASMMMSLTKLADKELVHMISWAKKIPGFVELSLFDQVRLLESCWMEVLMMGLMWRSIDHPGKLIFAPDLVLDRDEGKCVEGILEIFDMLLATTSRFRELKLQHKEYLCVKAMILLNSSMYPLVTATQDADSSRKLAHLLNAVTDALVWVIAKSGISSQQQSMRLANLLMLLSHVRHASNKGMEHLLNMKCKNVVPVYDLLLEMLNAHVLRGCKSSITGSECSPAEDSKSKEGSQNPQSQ
- EXPERIMENT: displacement of fluorescent estrogen from ERbeta – cell-based, Cos7 ERbeta-GFP, flow cytometry, primary screen (AID 1210);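 further: 0% = DMSO vehicle wells and 100% = complete loss of labeled estradiol signal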
- CONDITION_DESCRIPTION: fluorescent estrogen binding, ligand binding inhibition, at 0.1 µM, stronger effect = higher value
Give measured inhibition for each item. Keep answers brief.
Express your answer in %, writing the number without its unit.

Lookup: Tell me the measured inhibition of Oc1cccc(-c2nc3ccc4ccccc4c3c3c2CCC3)c1 , please.
Found: 21

Lookup: Tell me the measured inhibition of CCOC(=O)N1CCN(S(=O)(=O)c2ccc(C(=O)Nc3nc4ccc(F)cc4s3)cc2)CC1 , please.
Found: 39

Lookup: Tell me the measured inhibition of CC(=O)c1ccc(NC(=S)N2CCC(O)CC2)cc1 , please.
Found: 23

Lookup: Tell me the measured inhibition of CCN(CC)c1ccc2c(c1)oc(=O)c1c(Cl)cc(=O)oc12 , please.
Found: 18

Lookup: Tell me the measured inhibition of Oc1ccc(-c2nc3ccc4ccccc4c3c3c2CCC3)cc1O , please.
Found: 47

Lookup: Tell me the measured inhibition of Cc1noc(C)c1COc1ccc(C(=O)OCC(=O)N2c3ccccc3NC(=O)C2(C)C)cc1 , please.
Found: 30

Lookup: Tell me the measured inhibition of COc1ccc(NC(=O)C(c2ccccc2)N(C)C(=O)c2ccc(=O)[nH]c2)cc1 (stereo not given) , please.
Found: 56

Lookup: Tell me the measured inhibition of CCCCN(CCCC)S(=O)(=O)c1ccc(NC(=O)Cc2cccs2)cc1 , please.
Found: 19

Lookup: Tell me the measured inhibition of CCN1CCc2nc(NC(=O)Cc3ccc4c(c3)OCCO4)sc2C1 , please.
Found: 4

Lookup: Tell me the measured inhibition of CN(c1ccccc1C(=O)O)S(=O)(=O)c1ccc2c3c(cccc13)C(=O)N2 , please.
Found: 6

* * *

- TESTED_TARGET: Estrogen receptor beta (Homo sapiens)
- EXPERIMENT: displacement of fluorescent estrogen from ERbeta – cell-based, Cos7 ERbeta-GFP, flow cytometry, primary screen (AID 1210);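 further: 0% = DMSO vehicle wells and 100% = complete loss of labeled estradiol signal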
- CONDITION_DESCRIPTION: fluorescent estrogen binding, at 10 µM, stronger effect = higher value
Activity calls are given as the source filed them.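 The calls were made as follows: active = blocks over 70% of labeled estradiol binding at 10 µM, or over a set limit at 100 nM; inactive = the rest.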
MEASURED_QUANTITY: inhibition

Lookup: Tell me the measured inhibition of COc1cc([N+](=O)[O-])cc2c1NC(c1ccccc1Cl)C1CC=CC21 (stereo not given) , please.
Found: 20% (inactive)

Lookup: Tell me the measured inhibition of CCOC(=O)C1=C(C)NC(=O)NC1c1ccco1 (stereo not given) , please.
Found: 11% (inactive)

Lookup: Tell me the measured inhibition of O=C(COC(=O)c1ccccc1)NCc1ccco1 , please.
Found: 67% (inactive)

Lookup: Tell me the measured inhibition of O=C(Cc1ccc(S(=O)(=O)N2CCOCC2)s1)Nc1nc2c(s1)CCCC2 , please.
Found: 18% (inactive)

Lookup: Tell me the measured inhibition of COc1ccc(C2Nc3ccccc3C(=O)N2c2ccc(C)cc2)cc1Cn1cc([N+](=O)[O-])cn1 (stereo not given) , please.
Found: 20% (inactive)

Lookup: Tell me the measured inhibition of O=S(=O)(NCc1csc(-c2cccnc2)n1)c1ccc(Cl)s1 , please.
Found: 31% (inactive)

Lookup: Tell me the measured inhibition of Cc1nnc(N/N=C/c2ccc(O)c([N+](=O)[O-])c2)[nH]c1=O , please.
Found: 7% (inactive)

Lookup: Tell me the measured inhibition of O=S(=O)(c1cccc(-c2cn3cccnc3n2)c1)N1CCCCCC1 , please.
Found: 14% (inactive)

Lookup: Tell me the measured inhibition of COc1ccc(C(=O)N/N=C(\C)c2ccc3c(c2)C2C=CCC2C(c2ccccc2)N3)cc1 (stereo not given) , please.
Found: 67% (active)

Lookup: Tell me the measured inhibition of COc1ccc2c(c1)c(=O)oc1cc(OCC(=O)N3CCC(C)CC3)ccc12 , please.
Found: 52% (inactive)

* * *

- TESTED_TARGET: Estrogen receptor beta (Homo sapiens) (UniProt Q92731)
- EXPERIMENT: displacement of fluorescent estrogen from ERbeta – cell-based, Cos7 ERbeta-GFP, flow cytometry, primary screen (AID 1210);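 further: 0% = DMSO vehicle wells and 100% = complete loss of labeled estradiol signal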
- CONDITION_DESCRIPTION: fluorescent estrogen binding, ligand binding inhibition, at 0.1 µM, stronger effect = higher value
Give measured inhibition for each item. Keep answers brief.
Express your answer in %, writing the number without its unit.

Lookup: Tell me the measured inhibition of C[C@]12CC[C@@H]3c4ccc(O[C@@H]5O[C@H](C(=O)O)[C@@H](O)[C@H](O)[C@H]5O)cc4CC[C@H]3[C@@H]1C[C@@H](O)[C@@H]2O , please.
Found: 15

Lookup: Tell me the measured inhibition of Cc1cc(C)c(S(=O)(=O)/N=C2\C=CC(=O)C(Cl)=C2)c(C)c1 , please.
Found: 16

Lookup: Tell me the measured inhibition of COc1ccc(N2Cc3cccc(C(=O)N4CCN(C(=O)c5ccco5)CC4)c3C2=O)cc1 , please.
Found: 27

Lookup: Tell me the measured inhibition of O=c1cc(CSc2nnc(-c3cccs3)n2Cc2ccccc2)nc2sc3ccccc3n12 , please.
Found: 26

Lookup: Tell me the measured inhibition of Cc1ccccc1CSCC(=O)NC(=O)NCc1ccco1 , please.
Found: 35

Lookup: Tell me the measured inhibition of O=C(COC(=O)CC1CCCC1)Nc1cc2c(cc1Cl)C(=O)c1ccccc1C2=O , please.
Found: 15

Lookup: Tell me the measured inhibition of COc1ccc(CNC(=O)COC(=O)c2cc(-c3ccco3)nc3ccccc23)cc1 , please.
Found: 8

Lookup: Tell me the measured inhibition of CCSc1nc2c(cnn2-c2ccc(C)cc2)c(=O)[nH]1 , please.
Found: 29

Lookup: Tell me the measured inhibition of Cc1ccc(-c2nn(-c3ccccc3)cc2CSC(=N)N)cc1 , please.
Found: 33

Lookup: Tell me the measured inhibition of Oc1ccc(C=Nc2ccc(N3CCOCC3)cc2)c(O)c1 , please.
Found: 63

* * *

- TESTED_TARGET: Estrogen receptor beta (Homo sapiens) (UniProt Q92731)
- EXPERIMENT: displacement of fluorescent estrogen from ERbeta – cell-based, Cos7 ERbeta-GFP, flow cytometry, primary screen (AID 1210);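 further: 0% = DMSO vehicle wells and 100% = complete loss of labeled estradiol signal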
- CONDITION_DESCRIPTION: fluorescent estrogen binding, at 10 µM, stronger effect = higher value
MEASURED_QUANTITY: inhibition (%)
Express your answer in %, writing the number without its unit.

Lookup: Tell me the measured inhibition of CCOC(=O)c1sc(NC(=O)c2ccc3ncsc3c2)nc1C , please.
Found: 21

Lookup: Tell me the measured inhibition of ON=C1/C(=N\O)CC2(C/C1=N/O)OCCO2 , please.
Found: 28

Lookup: Tell me the measured inhibition of Cn1c(-c2ccc3nc(N)sc3c2)nc2cc(N)ccc21 , please.
Found: 68

Lookup: Tell me the measured inhibition of Cc1oc2cc(O)ccc2c(=O)c1Oc1ccccc1 , please.
Found: 22

Lookup: Tell me the measured inhibition of O=C(COC(=O)CN1C(=O)c2ccccc2C1=O)Nc1ncc(Cl)cc1Cl , please.
Found: 33

Lookup: Tell me the measured inhibition of CCCCCCNC(=O)c1cc(-c2ccco2)nc2ccccc12 , please.
Found: 92

* * *

- TESTED_TARGET: Estrogen receptor beta (Homo sapiens)
- EXPERIMENT: displacement of fluorescent estrogen from ERbeta – cell-based, Cos7 ERbeta-GFP, flow cytometry, primary screen (AID 1210);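 further: 0% = DMSO vehicle wells and 100% = complete loss of labeled estradiol signal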
- CONDITION_DESCRIPTION: fluorescent estrogen binding, at 10 µM, stronger effect = higher value
Assign classes using reported inhibition values and the ranges low band = under 20%, middle band = from 20% up to 50%, high band = 50% and over, please.

Lookup: Assign a category based on measured inhibition for CC1(C)N=C(N)N=C(N)N1c1ccc(C(=O)O)cc1 and give only the class name.
Found: middle band

Lookup: Assign a category based on measured inhibition for COc1ccc(C2(CNCC(N)=O)CCCC2)cc1OC and give only the class name.
Found: low band

Lookup: Assign a category based on measured inhibition for Cc1c2cc(O)c(=O)cc-2oc2cc(O)c(O)cc12 and give only the class name.
Found: high band

Lookup: Assign a category based on measured inhibition for CCn1nnc(NC(=O)CSc2ccc(Cl)cc2)n1 and give only the class name.
Found: low band

Lookup: Assign a category based on measured inhibition for Cc1ccc2c(c1)C1C=CCC1C(C(=O)O)N2 (centres undefined) and give only the class name.
Found: low band

Lookup: Assign a category based on measured inhibition for O=c1oc2cc(O)c(Cl)cc2c2c1CCCC2 and give only the class name.
Found: low band

Lookup: Assign a category based on measured inhibition for CCOc1cc(N2CCOCC2)c(OCC)cc1NC(=O)c1cc(-c2ccco2)nc2ccccc12 and give only the class name.
Found: middle band

Lookup: Assign a category based on measured inhibition for O=C(Cc1cccs1)Nc1ccc(S(=O)(=O)Nc2ncccn2)cc1 and give only the class name.
Found: high band

Lookup: Assign a category based on measured inhibition for O=C(O)C1OC(Oc2c(-c3ccc(O)c(O)c3)oc3cc(O)cc(O)c3c2=O)C(O)C(O)C1O (centres undefined) and give only the class name.
Found: high band

Lookup: Assign a category based on measured inhibition for Cc1cc(C)cc(OCC(=O)Nc2ccc(N3CCCC3)cc2)c1 and give only the class name.
Found: high band

Lookup: Assign a category based on measured inhibition for COc1cc2c(cc1OC)C(Cc1ccc(O)cc1)N(C)CC2 (centres undefined) and give only the class name.
Found: high band

Lookup: Assign a category based on measured inhibition for COc1ccc(CCn2c(SCC(=O)Nc3cc(C)on3)nc3ccsc3c2=O)cc1OC and give only the class name.
Found: high band

Lookup: Assign a category based on measured inhibition for CC(C)(C)c1nnc2sc(SC/C(O)=C(\C#N)c3nc4ccccc4[nH]3)nn2c1=O and give only the class name.
Found: middle band

Lookup: Assign a category based on measured inhibition for O=[N+]([O-])c1cc(/C=N/N2CCN(C3c4ccccc4-c4ccccc43)CC2)ccc1Cl and give only the class name.
Found: middle band

Lookup: Assign a category based on measured inhibition for O=C(OC1CCCCC1)c1ccc2c(c1)C1C=CCC1C(C(=O)O)N2 (centres undefined) and give only the class name.
Found: low band

Lookup: Assign a category based on measured inhibition for COc1cccc(-n2nnnc2SCC(=O)Nc2ccc(C(C)=O)cc2)c1 and give only the class name.
Found: high band

Lookup: Assign a category based on measured inhibition for Cc1cc(C)c(S(=O)(=O)/N=C2\C=CC(=O)C(Cl)=C2)c(C)c1 and give only the class name.
Found: low band

Lookup: Assign a category based on measured inhibition for CC1(C)CC(=O)c2c(oc3cc(O)c(O)cc23)C1 and give only the class name.
Found: low band

Lookup: Assign a category based on measured inhibition for C=C1C2C[C@H](O)C(C)(C)[C@@]2(O)[C@H](O)C[C@]23C[C@@](C)(O)[C@H](CC[C@H]12)[C@H]3O (some centres undefined) and give only the class name.
Found: high band

Lookup: Assign a category based on measured inhibition for CCC(=O)Nc1ccc(C(=O)Cn2nc(C(=O)O)c3ccccc3c2=O)cc1 and give only the class name.
Found: high band

Lookup: Assign a category based on measured inhibition for COc1cc(C2C(C#N)=C(N)Oc3cc(C)oc(=O)c32)cc2c1OCO2 (centres undefined) and give only the class name.
Found: middle band

Lookup: Assign a category based on measured inhibition for Cc1cc(Cl)ccc1OCC(=O)OC(C)C(=O)N(C)C (centres undefined) and give only the class name.
Found: middle band

Lookup: Assign a category based on measured inhibition for COc1cccc(NS(=O)(=O)c2ccc3c(c2)C2C=CCC2C(c2ccc(C(=O)O)cc2)N3)c1 (centres undefined) and give only the class name.
Found: low band

Lookup: Assign a category based on measured inhibition for CCOc1ccc(CC2S/C(=N/c3ccccn3)NC2=O)cc1 (centres undefined) and give only the class name.
Found: low band

Lookup: Assign a category based on measured inhibition for C=C(C)CNC(=S)NNC(=O)CCn1c2cc(Cl)ccc2c2ccc(Cl)cc21 and give only the class name.
Found: low band

Lookup: Assign a category based on measured inhibition for COc1cc([N+](=O)[O-])cc2c1NC(c1ccccc1)C1CC=CC21 (centres undefined) and give only the class name.
Found: low band

Lookup: Assign a category based on measured inhibition for Cc1nnc(NC(=O)Cc2cccs2)s1 and give only the class name.
Found: low band

Lookup: Assign a category based on measured inhibition for CC1(C)C=C(c2ccc(O)cc2)CC(C)(C)N1 and give only the class name.
Found: middle band

Lookup: Assign a category based on measured inhibition for Cc1cc(C(=O)O)ccc1-n1c(C)ccc1C and give only the class name.
Found: high band

Lookup: Assign a category based on measured inhibition for Cc1sc2ncnc(SCC(=O)NC(=O)NCc3ccco3)c2c1C and give only the class name.
Found: middle band

Lookup: Assign a category based on measured inhibition for O=C1C2CC=C(Cl)CC2C(=O)N1CCCCCCN1C(=O)C2CC=C(Cl)CC2C1=O (centres undefined) and give only the class name.
Found: middle band

Lookup: Assign a category based on measured inhibition for O=C(CSc1nc2scc(-c3ccco3)c2c(=O)n1-c1ccccc1)NCC1CCCO1 (centres undefined) and give only the class name.
Found: high band

Lookup: Assign a category based on measured inhibition for Cc1ccc(-n2c(=O)c(C#N)cc3c(=O)n4cccc(C)c4nc32)cc1 and give only the class name.
Found: high band

Lookup: Assign a category based on measured inhibition for Oc1ccc(-c2[nH]nc(-c3ccccc3)c2-c2nc3ccccc3[nH]2)cc1 and give only the class name.
Found: middle band

Lookup: Assign a category based on measured inhibition for COc1cc(/C=N/N2CCN(C3c4ccccc4-c4ccccc43)CC2)ccc1O and give only the class name.
Found: middle band

Lookup: Assign a category based on measured inhibition for Cn1ccnc1SCC(=O)Nc1ccc2nc(SCC(=O)NC3CC3)sc2c1 and give only the class name.
Found: middle band

Lookup: Assign a category based on measured inhibition for COc1ccc(OC)c(/C=N/c2oc(-c3ccco3)c(-c3ccco3)c2C#N)c1 and give only the class name.
Found: middle band

Lookup: Assign a category based on measured inhibition for c1ccc(Cc2nnc3sc(-c4ccco4)nn23)cc1 and give only the class name.
Found: low band

Lookup: Assign a category based on measured inhibition for O=c1cc(CSc2nnc(-c3cccs3)n2Cc2ccccc2)nc2sc3ccccc3n12 and give only the class name.
Found: high band

Lookup: Assign a category based on measured inhibition for Cc1ccc2c(c1)[C@H]1OCC[C@H]1[C@@H](c1ccncc1)N2 and give only the class name.
Found: middle band

Lookup: Assign a category based on measured inhibition for CSC(=O)CNC1(Cc2ccc(O)cc2)CCCCC1 and give only the class name.
Found: high band

Lookup: Assign a category based on measured inhibition for Cc1cc(-c2nn3c(-c4ccccc4)nnc3s2)c2ccccc2n1 and give only the class name.
Found: high band

Lookup: Assign a category based on measured inhibition for Cn1c(C(=O)Nc2ccc3c(c2)OCO3)cc2c(=O)n(C)c3ccccc3c21 and give only the class name.
Found: middle band

// provenance: PubChem BioAssay AID1210
